target: D(2) dopamine receptor (Homo sapiens) (UniProt P14416); test: Dopamine D2 receptor (DRD2) small molecule antagonists, cell-based qHTS assay (AID 1963595); conditions: HEK293-DRD2 cAMP HTRF antagonist mode; series mostly up to 92.4 µM
Sequence (P14416 whole entry, looked up): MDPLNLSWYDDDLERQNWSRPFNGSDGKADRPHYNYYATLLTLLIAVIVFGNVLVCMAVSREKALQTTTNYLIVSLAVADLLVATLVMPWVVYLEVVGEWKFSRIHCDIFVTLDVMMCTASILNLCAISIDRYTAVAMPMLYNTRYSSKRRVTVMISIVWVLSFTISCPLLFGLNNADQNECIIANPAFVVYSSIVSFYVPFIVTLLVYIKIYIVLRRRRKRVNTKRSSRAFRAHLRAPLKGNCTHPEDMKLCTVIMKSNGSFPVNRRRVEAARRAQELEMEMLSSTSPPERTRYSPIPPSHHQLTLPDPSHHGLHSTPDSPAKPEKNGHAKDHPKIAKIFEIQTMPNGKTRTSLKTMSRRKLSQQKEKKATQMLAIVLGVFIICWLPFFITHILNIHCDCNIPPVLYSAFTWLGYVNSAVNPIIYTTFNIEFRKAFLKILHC
Results filed as inconclusive are left out. Active and inactive are the calls of the source. Calls follow the shape of the dose curve; as a rule, active = well fitted inhibition curve with a large enough effect in the signal ratio in the repeat runs, with a control signal flat; inconclusive = weak or mixed curves, or effect the other way; inactive = flat fitted curve, though single readings scatter; the % refers to the signal ratio.
Would you mind answering with one of these outcomes? label 1 for active, label 0 for inactive

Solved cases (5 shown):
>>> cat("CCOC(=O)C(C)Oc1ccc(Oc2nc3ccc(Cl)cc3o2)cc1 (centres undefined)")
"label 0"
>>> cat("OC(CCN1CCCCC1)(c1ccccc1)C1CC2C=CC1C2 (centres undefined)")
"label 0"
>>> cat("CCCc1ccc(OCC(=O)N2CCN(C(=O)COc3ccc(CCC)cc3OC)CC2)c(OC)c1")
"label 0"
>>> cat("O=S(=O)(c1ccc(OCc2ccccc2)cc1)c1ccccc1O")
"label 1"
>>> cat("COC(=O)C1=C(C)NC(C)=C(C(=O)OCC(C)=O)C1c1ccccc1[N+](=O)[O-] (centres undefined)")
"label 0"

Prompt: Tell me the assay call for `O=C(OCC(COC(=O)c1cccnc1)(COC(=O)c1cccnc1)COC(=O)c1cccnc1)c1cccnc1` please.
Completion: label 0

Prompt: What call does the record list for OCc1cc(C(O)CNCCCCCCOCCCCc2ccccc2)ccc1O (centres undefined) ?
Completion: label 1

Prompt: Hey, what did the test say about `O=c1[nH]nc(-c2ccc([N+](=O)[O-])o2)o1` ?
Completion: label 0

Prompt: Which outcome was assigned to `CCCOC(OCCC)OCCC` in this test?
Completion: label 0

---

assay: Nuclear factor erythroid 2-related factor 2/antioxidant responsive element (Nrf2/ARE) small molecule agonists: luciferase reporter gene qHTS assay in human keratinocytes (AID 1919969); settings: KeratinoSens HaCaT ARE-luciferase, luminescence, 24 h; series mostly up to 92.4 µM; also: % is scaled to controls: 0 for no effect and ±100 for the full control effect; nearly all actives have a fitted effect of over 35% in size
Records with an inconclusive call do not appear. Calls of active or inactive are those of the source. Calls follow the shape of the full dose curve.
Readout kind: Potency

>>> experimental_result("C[C@H]1COc2c(C3(N)CC3)c(F)cc3c(=O)c(C(=O)O)cn1c23")
"inactive"
>>> experimental_result("CC[N+](C)(CC)CCOC(=O)C1c2ccccc2Oc2ccccc21")
"inactive"
>>> experimental_result("C[C@@H](O)C(=O)O")
"inactive"
>>> experimental_result("CCCCCCCCS(=O)C(C)Cc1ccc2c(c1)OCO2 (configuration not stated)")
"inactive"
>>> experimental_result("CCCOC(OCCC)OCCC")
"inactive"

Prompt: Give the measured Potency of `CCOc1ccc2[nH]cc(C(=O)NCc3ccccc3)c(=O)c2n1` .
Completion: inactive

Prompt: Which Potency reading was recorded for the molecule `CN1CC(=O)N2[C@H](c3ccc4c(c3)OCO4)c3[nH]c4ccccc4c3C[C@@H]2C1=O` ?
Completion: inactive

---

experiment: Nuclear factor erythroid 2-related factor 2/antioxidant responsive element (Nrf2/ARE) small molecule agonists: qHTS cell viability counter screen in human keratinocytes (AID 1919968); details: KeratinoSens HaCaT ARE cells viability, CellTiter-Fluor, 24 h; series mostly up to 92.4 µM; also: nearly all actives have a fitted effect of over 55% in size
Inconclusive results are not listed. The source made the active and inactive calls. Calls come from the whole dose curve; as a rule, active = well fitted cell-killing curve with a large enough effect in the repeat runs; inconclusive = weak or mixed curves, or effect the other way; inactive = flat fitted curve, though single readings scatter.
// classify into class 1 = active, class 0 = inactive

Before answering, review these 5 worked examples.
>>> cat("O=C1NC(=O)C2CC=CCC12 (centres undefined)")
"class 0"
>>> cat("COC(C)(C)OC")
"class 0"
>>> cat("CN1CCCN=C1/C=C/c1cccs1")
"class 0"
>>> cat("CCCc1ccc(OC)cc1")
"class 0"
>>> cat("CCC(C)N (centres undefined)")
"class 0"

Prompt: Per the assay record, what outcome was assigned to `O=C(O)CC(=O)C(=O)O` ?
Completion: class 0

Prompt: What was the test verdict on `C[C@@H](NCCCc1cccc(C(F)(F)F)c1)c1cccc2ccccc12` ?
Completion: class 1

Prompt: Check the results log: what was the call for `CCCCCOC(=O)c1ccc(O)cc1` ?
Completion: class 0

Prompt: Hi, sorry to bother you, what did the test record for `OC/C=C/c1ccccc1` ?
Completion: class 0

---

biological target: 5-hydroxytryptamine receptor 2A (Homo sapiens) (UniProt P28223); assay: 5-hydroxytryptamine receptor 2A (HTR2A) small molecule agonists, cell-based qHTS assay (AID 1963587); details: HTR2A-CHO cells, calcium flux fluorescence, agonist mode; series mostly up to 76.8 µM; also: nearly all actives have a fitted effect of over 30% in size; also: potency is read from the fitted curve at half-maximal effect
Sequence (P28223 whole entry, looked up): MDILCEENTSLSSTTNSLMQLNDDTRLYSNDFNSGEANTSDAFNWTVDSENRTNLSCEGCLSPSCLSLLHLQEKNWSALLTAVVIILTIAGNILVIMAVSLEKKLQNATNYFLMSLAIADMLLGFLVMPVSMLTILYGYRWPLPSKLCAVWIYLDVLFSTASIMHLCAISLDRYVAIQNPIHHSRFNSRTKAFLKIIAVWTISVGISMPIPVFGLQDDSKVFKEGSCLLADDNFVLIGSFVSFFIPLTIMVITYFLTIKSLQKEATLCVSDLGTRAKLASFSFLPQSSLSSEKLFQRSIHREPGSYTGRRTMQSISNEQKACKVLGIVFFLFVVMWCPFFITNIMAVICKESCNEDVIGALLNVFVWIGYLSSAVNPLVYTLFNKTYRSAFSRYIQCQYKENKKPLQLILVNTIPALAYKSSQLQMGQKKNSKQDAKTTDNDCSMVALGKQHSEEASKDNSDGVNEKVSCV
Inconclusive results are not listed. Calls of active or inactive are those of the source. Calls come from the whole dose curve.
Readout kind: Potency

>>> experimental_result("Oc1ccc2c(c1)-c1ccccc1C2")
"inactive"
>>> experimental_result("CN(C)CC[C@@H](c1ccc(Br)cc1)c1ccccn1")
"inactive"
>>> experimental_result("CC1CN(c2ccccc2)NC1=O (centres undefined)")
"inactive"
>>> experimental_result("CN1C[C@H]2c3ccccc3Oc3ccc(Cl)cc3[C@@H]2C1")
"23.9 µM (active)"

---

Assay: p53 small molecule agonists, cell-based qHTS assay with human liver microsomes: qHTS cell viability counter screen (AID 1963579); also: nearly all actives have a fitted effect of over 45% in size
Settings: p53RE-bla HCT-116 viability, ATP luminescence, 16 h, HLM; series mostly up to 66 µM
Text: National Center for Advancing Translational Sciences [NCATS] Division of Preclinical Innovation [DPI] U.S. Environmental Protection Agency [EPA] National Institutes of Environmental Health Sciences [NIEHS] National Toxicology Program [NTP] U.S. Food and Drug Administration [FDA] p53, a tumor suppressor protein, is activated following cellular insult, including DNA damage and other cellular stresses. […] The activation of the reporter gene under culture conditions can be detected by fluorescence intensity. […]
Results filed as inconclusive are left out. The source made the active and inactive calls. The call rests on the fitted dose curve.
Respond with a class label; see t for active, f for inactive

Below are worked cases with known answers.
>>> cat("C=CC(=O)OCCCCCCOC(=O)C=C")
"f"
>>> cat("O=C(O)c1ccc(O)c(O)c1")
"f"

Prompt: Could you kindly confirm the outcome this assay logged for `CC(C)(C)C(=O)c1ccccc1` ?
Completion: f

Prompt: Per the assay record, what outcome was assigned to `Nc1ccc(Oc2ccc(N)c(N)c2)cc1` ?
Completion: f

Prompt: Could you please tell me the result logged for CCCNC(C)C(=O)Nc1c(C)csc1C(=O)OC (stereo not given) in this assay?
Completion: f

Prompt: Returns: the outcome recorded for `Oc1ccc(Cl)cc1C1CCCC1` in this assay.
Completion: t

Prompt: Status in this test for CC(CC(=O)Cl)CC(C)(C)C (stereo not given) ?
Completion: f

Prompt: Called result for `Cc1nn(C)c(Oc2ccccc2)c1/C=N/OCc1ccc(C(=O)OC(C)(C)C)cc1`
Completion: f

Prompt: Query: recorded result category for `Cc1cc(O)c(C(C)C)cc1Cl` in this test
Completion: f

Prompt: Just curious, what result did `N#Cc1nc(Cl)c(Cl)c(Cl)c1Cl` get here?
Completion: t

---

test: Nuclear factor erythroid 2-related factor 2/antioxidant responsive element (Nrf2/ARE) small molecule agonists: qHTS cell viability counter screen in human keratinocytes (AID 1919968); settings: KeratinoSens HaCaT ARE cells viability, CellTiter-Fluor, 24 h; series mostly up to 92.4 µM; also: nearly all actives have a fitted effect of over 55% in size
Inconclusive results are not listed. Calls of active or inactive are those of the source. Calls follow the shape of the dose curve; as a rule, active = well fitted cell-killing curve with a large enough effect in the repeat runs; inconclusive = weak or mixed curves, or effect the other way; inactive = flat fitted curve, though single readings scatter.
Log the outcome using a class from Y for active, N for inactive

The examples below pair each entry with its known result.
>>> cat("CCC(CC)CO")
"N"
>>> cat("COC(=O)CSc1cc(N=c2sc(=O)n3n2CCCC3)c(F)cc1Cl")
"N"
>>> cat("CCc1cc(C2=C(C(=O)O)N(c3ccccc3C(F)(F)F)S(=O)(=O)c3ccccc32)cc2c1OCO2")
"N"
>>> cat("CCCCN(CCN(CCCC)C(=O)N1CCOCC1)C(=O)N1CCOCC1")
"Y"
>>> cat("CC(=O)c1ccc([N+](=O)[O-])cc1")
"N"
>>> cat("CC(C(O)c1ccccc1)N(C)CCOC(c1ccccc1)c1ccccc1 (stereo not drawn)")
"Y"
>>> cat("Nc1ccccn1")
"N"

Continue with the next compound.
Prompt: # fetch the recorded call for `O=C1c2ccccc2C(=O)N1CCc1noc(-c2ccc(CN3CCCCCC3)s2)n1` here
Completion: N

---

experiment: Nuclear factor erythroid 2-related factor 2/antioxidant responsive element (Nrf2/ARE) small molecule agonists: qHTS cell viability counter screen in human keratinocytes (AID 1919968); details: KeratinoSens HaCaT ARE cells viability, CellTiter-Fluor, 24 h; series mostly up to 92.4 µM; also: nearly all actives have a fitted effect of over 55% in size
Records with an inconclusive call do not appear. Activity calls are given as the source filed them. The call rests on the fitted dose curve; in most records, active means well fitted cell-killing curve with a large enough effect in the repeat runs; inconclusive means weak or mixed curves, or effect the other way; inactive means flat fitted curve, though single readings scatter.
Please reply with one of these outcomes: True (active), False (inactive)

Below, 4 molecules whose answers are already recorded.
>>> cat("C[C@@H](O)[C@H]1C(=O)N2C(C(=O)O)=C(S[C@@H]3CN[C@H](CNS(N)(=O)=O)C3)[C@H](C)[C@H]12")
"False"
>>> cat("Brc1cc2ccccc2c2ccccc12")
"True"
>>> cat("CO[Si](C)(OC)OC")
"False"
>>> cat("O=C(c1ccccc1)c1ccc(O)cc1")
"False"

Prompt: For `CC1(C)CCC[C@]2(C)[C@H]3CC(=O)O[C@]3(C)CC[C@@H]12` , what call appears in the results of this test?
Completion: False

Provenance of the data: PubChem BioAssay (Tox21)
